From: the supplement of paper PMC7125110

B1: glmS ribozyme (parent)
chain: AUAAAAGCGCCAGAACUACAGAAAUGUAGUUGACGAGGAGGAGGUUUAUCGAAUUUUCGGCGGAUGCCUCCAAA

- Variants of: B1
- assay: self-cleavage kobs at 2500 uM GlcN6P; higher = faster cleavage; RNA array
- condition-summary: with glucosamine-6-phosphate
This sample holds only a part of the variants without activity.
Entry flag: t if self-cleavage kobs at 2500 uM GlcN6P reaches 0.001 s⁻¹; f if it does not.

variant-designation | label-class
A6U C58U | f
G9C A12C C19A G51U U54G G63C C70G | f
G13C G35U A52C | f
U31G G40A | t
U56A C70U | t
U31A A39G | t
G13U U45G | f
G13U U31A U45G A48C | f
U45A A64C | f
U47C U54G | t
G7U U69C | f
A6C A33U G37C A42U A48C U56A G59U C68G | f
G32A C71A | f
G7A G32C | f
A42C G60U | f
C8U U55G C61U C68A | f
C16G G32A C68U | f
G43C U57A C70G | f
A6G C50G C61U | f
G35U G40A A52U | f
C8G A39U U46G U69G | f
C16U G41A | t
C16U A42U C67G | f
